All values here come from paper PMC8851455.

Test system: chicken embryo
protocolDescription: Chicken embryonic assay
Type: in vivo
cond: lower dose (0.05 mM: 45–50 μg/kg; E2 0.01 mM: 9.1 μg/kg), egg injection, day 18
Reported weights: heart values follow for various compounds

These recorded examples may help you get a feel for the data.
compound: O=c1c(-c2ccc(O)cc2)coc2cc(O)cc(O)c12 [genistein]
propertyName: weights: heart
readoutValue: 0.17 ± 0.01 g
//
compound: O=c1c(O)c(-c2ccc(O)c(O)c2)oc2cc(O)cc(O)c12 [quercetin]
propertyName: weights: heart
readoutValue: 0.20 ± 0.02 g
//
compound: C[C@]12CC[C@@H]3c4ccc(O)cc4CC[C@H]3[C@@H]1CC[C@@H]2O [E2, 17β-estradiol, reference compound]
propertyName: weights: heart
readoutValue: 0.18 ± 0.03 g
//
compound: O=c1cc(-c2ccc(O)c(O)c2)oc2cc(O)cc(O)c12 [luteolin]
propertyName: weights: heart
readoutValue: 0.19 ± 0.05 g

Please look at the following compound next.
Provide the documented weights: heart with chicken embryo as the system for O=c1cc(-c2ccc(O)cc2)oc2cc(O)cc(O)c12 [apigenin]
0.18 ± 0.02 g
